Measured IC50 by item
Target: Cyclin-dependent kinase-like 3 (Homo sapiens, UniProt Q8IVW4)
Sequence (Q8IVW4 whole entry): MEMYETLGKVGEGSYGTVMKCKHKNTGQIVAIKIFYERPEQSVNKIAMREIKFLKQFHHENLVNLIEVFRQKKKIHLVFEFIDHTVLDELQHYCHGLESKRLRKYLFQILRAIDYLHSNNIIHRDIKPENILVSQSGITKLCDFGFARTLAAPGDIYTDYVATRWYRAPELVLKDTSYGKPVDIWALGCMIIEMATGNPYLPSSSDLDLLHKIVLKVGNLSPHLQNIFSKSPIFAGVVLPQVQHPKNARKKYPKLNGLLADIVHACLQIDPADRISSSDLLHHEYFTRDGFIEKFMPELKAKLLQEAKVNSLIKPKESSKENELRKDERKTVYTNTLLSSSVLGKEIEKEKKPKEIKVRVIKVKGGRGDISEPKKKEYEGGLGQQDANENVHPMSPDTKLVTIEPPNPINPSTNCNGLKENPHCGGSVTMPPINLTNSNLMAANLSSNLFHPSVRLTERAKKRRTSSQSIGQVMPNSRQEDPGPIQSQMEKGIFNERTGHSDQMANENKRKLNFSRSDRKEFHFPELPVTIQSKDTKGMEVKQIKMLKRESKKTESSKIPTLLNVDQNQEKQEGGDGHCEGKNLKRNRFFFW
Assay: Inhibition of CDKL3 (unknown origin) by NanoBRET cellular target engagement assay
Readout Label: IC50

INSERT INTO measurements (structure_smiles_string, test_result) VALUES
  ('CC(C)(C)c1ccc(-c2coc3ccc(-c4cn[nH]n4)nc23)cc1', '> 50 µM'),
  ('CC(C)(C)c1ccc(-c2coc3ccc(-c4cn[nH]c4)nc23)cc1', '> 50 µM'),
  ('O=C(Nc1c[nH]nc1-c1nc2cc(CN3CCOCC3)ccc2[nH]1)NC1CC1', '1.1 µM');

---

Biological target: Dual specificity protein kinase CLK4 (Homo sapiens, UniProt Q9HAZ1)
Sequence (Q9HAZ1 whole entry): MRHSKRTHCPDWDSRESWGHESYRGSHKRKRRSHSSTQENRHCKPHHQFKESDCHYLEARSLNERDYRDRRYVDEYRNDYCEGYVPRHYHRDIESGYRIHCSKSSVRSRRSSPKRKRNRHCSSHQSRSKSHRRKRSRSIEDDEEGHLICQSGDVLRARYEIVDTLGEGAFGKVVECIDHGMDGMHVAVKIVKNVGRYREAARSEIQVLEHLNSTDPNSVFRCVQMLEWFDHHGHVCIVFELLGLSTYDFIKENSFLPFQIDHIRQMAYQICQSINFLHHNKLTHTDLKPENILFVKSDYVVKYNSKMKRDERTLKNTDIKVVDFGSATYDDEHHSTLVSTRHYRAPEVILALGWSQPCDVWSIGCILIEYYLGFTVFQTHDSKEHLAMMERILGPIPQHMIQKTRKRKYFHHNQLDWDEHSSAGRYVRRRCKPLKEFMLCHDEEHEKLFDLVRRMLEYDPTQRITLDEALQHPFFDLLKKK
Assay: Inhibition of human recombinant CLK4 using YRRAAVPPSPSLS substrate by radiometric scintillation assay
pIC50: −log10 of the molar value.
Readout Label: pIC50

INSERT INTO measurements (structure_smiles_string, test_result) VALUES
  ('CC(C)(C)c1ccc(-c2coc3ccc(-c4nn[nH]n4)nc23)cc1', '< 5.52'),
  ('CC(C)(C)c1ccc(-c2coc3ccc(-c4cnsc4)nc23)cc1', '< 5.52'),
  ('CC(C)(C)c1ccc(-c2coc3ccc(-c4cnn(CCN5CCOCC5)c4)nc23)cc1', '< 5.52'),
  ('Cn1ccc(-c2ccc3occ(-c4ccc(C(C)(C)C)cc4)c3n2)n1', '< 5.52'),
  ('CC(C)(C)c1ccc(-c2coc3ccc(-c4cc[nH]n4)nc23)cc1', '< 5.52'),
  ('Cn1cc(-c2ccc3occ(-c4ccc(C(C)(C)C)cc4)c3n2)cn1', '< 5.52'),
  ('Cn1cc(-c2ccc3occ(-c4ccc(C(C)(C)C)cc4)c3n2)nn1', '< 5.52'),
  ('CC(C)(C)c1ccc(-c2coc3ccc(-c4cn[nH]n4)nc23)cc1', '< 5.52'),
  ('c1n[nH]cc1-c1ccc2occ(-c3ccc(C45CC6CC(CC(C6)C4)C5)cc3)c2n1', '< 5.52');

---

Biological target: Dual specificity tyrosine-phosphorylation-regulated kinase 1A (Homo sapiens)
Test: Inhibition of human full length recombinant DYRK1A using RRRFRPASPLRGPP substrate by radiometric scintillation assay
Readout Label: IC50

INSERT INTO assay_data (structure_smiles_string, system_name, test_result) VALUES
  ('CC(C)(C)c1ccc(-c2coc3ccc(-c4cnsc4)nc23)cc1', 'Dual specificity tyrosine-phosphorylation-regulated kinase 1A (Homo sapiens)', '> 3 µM'),
  ('CC(C)(C)c1ccc(-c2coc3ccc(-c4nn[nH]n4)nc23)cc1', 'Dual specificity tyrosine-phosphorylation-regulated kinase 1A (Homo sapiens)', '> 3 µM'),
  ('Cn1cc(-c2ccc3occ(-c4ccc(C(C)(C)C)cc4)c3n2)cn1', 'Dual specificity tyrosine-phosphorylation-regulated kinase 1A (Homo sapiens)', '> 3 µM'),
  ('C=C(C)c1ccc(-c2coc3ccc(-c4cn[nH]c4)nc23)cc1', 'Dual specificity tyrosine-phosphorylation-regulated kinase 1A (Homo sapiens)', '1.37 µM'),
  ('Cn1cc(-c2ccc3occ(-c4ccc(C(C)(C)C)cc4)c3n2)nn1', 'Dual specificity tyrosine-phosphorylation-regulated kinase 1A (Homo sapiens)', '> 3 µM'),
  ('CC(C)(C)c1ccc(-c2coc3ccc(-c4cnn(CCN5CCOCC5)c4)nc23)cc1', 'Dual specificity tyrosine-phosphorylation-regulated kinase 1A (Homo sapiens)', '> 3 µM'),
  ('Cn1cc(-c2cccc(-c3coc4ccc(-c5cnn(C)c5)nc34)c2)cn1', 'Dual specificity tyrosine-phosphorylation-regulated kinase 1A (Homo sapiens)', '0.147 µM'),
  ('CC(C)(C)c1ccc(-c2coc3ccc(-c4cn[nH]n4)nc23)cc1', 'Dual specificity tyrosine-phosphorylation-regulated kinase 1A (Homo sapiens)', '> 3 µM'),
  ('c1n[nH]cc1-c1ccc2occ(-c3ccc(C4CCCCC4)cc3)c2n1', 'Dual specificity tyrosine-phosphorylation-regulated kinase 1A (Homo sapiens)', '> 3 µM');
